The origin of these recorded values is a melting point compilation (Tetko et al.; mined from patent text by program, amines drawn as free bases though some values may be those of a salt).

property-measured: melting point (°C)

Consider the reported melting point for these compounds:
smiles-repr | melting point, °C
CCCc1ncc(/C=C(\Cc2cccs2)C(=O)O)n1Cc1ccccc1Cl | 200
Oc1ccc(-c2nnsc2-c2ccc(O)cc2)cc1 | 221
CC(C)=NOCOc1cc(-n2c(=O)cc(C(F)(F)F)n(C)c2=O)c(F)cc1Br | 121
NC(=O)c1cc2c3ccccc3n(Cc3ccccc3)c2s1 | 207

P = O=S(=O)(Cl)c1ccc(SSc2ccc(S(=O)(=O)Cl)cc2)cc1
Q = COC(=O)CCCc1cc2nc(Cl)ccc2n1S(=O)(=O)c1cccc(OC)c1
Could you please tell me which of these two has the higher melting point: P or Q ? Your choice should be expressed through its label. P

I = CC(=O)C(=CC(=O)O)c1ccccc1
II = Cc1ccc(=NC(=O)C(F)(F)F)n(Cc2ccc(Cl)s2)c1
// pick min by melting point: I , II Your choice should be expressed through its label. I

###

property-measured: melting point

Consider the reported melting point for these compounds:
compound | melting point
C(=C/c1ccccc1)/COCCC1CCN(Cc2ccccc2)CC1 | 68 to 70 °C
Cc1c(Br)c(C)c2c(C)coc2c1Cc1ccc(C(C)C)cc1 | 76 to 77 °C
CCc1ccc(CCOc2ccc(NC(=O)N(C)C)cc2)nc1 | 121 to 122 °C
CC(C)Cn1c(=O)n(C)c(=O)c2c(-c3cccc(-c4nnn[nH]4)c3)n(Cc3cccc4ccccc34)nc21 | 251 to 254 °C
CCOC(=O)C1=C(C)NN=C(CC)C1c1cccc(C#N)c1 (stereo not given) | 91 °C
CC(=O)N1CCN(c2cccc(-n3cnc4cc(C(C)O)ccc43)c2)CC1 (stereo not given) | 126 °C

Query (compound): CC(O)(c1ccccc1)c1cc(C2CCCCC2)ccc1O (stereo not given) ; field requested: melting point 119 °C

###

# melting point listing for each entry below

Query (compound): CCCCC(=O)Nc1ccc(C2=N[C@H]3CCN(C)C[C@H]3c3cc(OC)c(OC)cc32)cc1 (relative stereo) ; field requested: melting point 230 to 235 °C

Query (compound): COc1ccc2c(O)c(CO)cnc2c1 ; field requested: melting point 291 to 297 °C

Query (compound): CCc1ccccc1OS(=O)(=O)c1ccc(N2CCN(C)C2=O)cc1 ; field requested: melting point 126 to 128 °C

Query (compound): Cc1c(Cl)c(Oc2ccc(C(F)(F)F)cc2[N+](=O)[O-])nn1C(=O)NC(C)C ; field requested: melting point 89 to 91 °C

Query (compound): CC(=O)Cc1ccc(OCC2CO2)cc1 (stereo not given) ; field requested: melting point 43 °C

Query (compound): CC(C)n1c(CC[C@@H]2C[C@H](CC(=O)OC(C)(C)C)OC(C)(C)O2)c(-c2ccc(F)cc2)c(-c2ccccc2)c1C(N)=O ; field requested: melting point 201 to 202 °C

Query (compound): O=[N+]([O-])c1ccc2c(c1)OC(c1ccccc1)O2 (stereo not given) ; field requested: melting point 84 to 85 °C

Query (compound): CC(=O)N1CCc2c(N)cccc2C1 ; field requested: melting point 107 to 108 °C

Query (compound): O=C(O)c1ccc(-c2cccc(O)c2)cc1 ; field requested: melting point 180 °C

Query (compound): CCOP(=O)(Cc1cc(=O)[nH]c2cc(I)ccc12)OCC ; field requested: melting point 196 to 198 °C
